These measurements were taken from patent US12291518B2.

For each entry below, report its EC50 value.
Target: THR beta-LBD (Homo sapiens, UniProt P10828)
Construct: THR beta-LBD (the final concentration is 0.5 nM) was added to the 384-well assay plate; purchased Invitrogen PV4686
Sequence (P10828 217-461 limits assumed): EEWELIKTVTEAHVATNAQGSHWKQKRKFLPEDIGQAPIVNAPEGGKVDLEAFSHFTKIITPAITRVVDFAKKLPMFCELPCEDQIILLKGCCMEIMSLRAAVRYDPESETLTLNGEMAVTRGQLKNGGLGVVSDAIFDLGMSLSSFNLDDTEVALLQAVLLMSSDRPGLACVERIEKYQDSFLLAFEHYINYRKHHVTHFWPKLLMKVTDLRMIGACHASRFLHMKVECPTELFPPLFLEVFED
Experiment: THR-β Coactivator Peptide Recruitment Assay (LanthaScreen TR-FRET)
Type: biochemical
Conditions: TR-FRET coactivator recruitment, THR beta-LBD 0.5 nM; read-out: THRβ EC50

Below, 4 molecules whose answers are already recorded.
INSERT INTO assay_data (structure_smiles_string, reported_result) VALUES
  ('CO[C@H]1C[C@@H](NS(=O)(=O)c2cc(Oc3c(Cl)cc(-n4nc(C(F)F)c(=O)[nH]c4=O)cc3Cl)ncc2O)C1', '20 to 100 nM'),
  ('CC(C)(O)CNS(=O)(=O)c1cc(Oc2c(Cl)cc(-n3nc(C(F)F)c(=O)[nH]c3=O)cc2Cl)ncc1O', '20 to 100 nM'),
  ('O=c1[nH]c(=O)n(-c2cc(Cl)c(Oc3cc(S(=O)(=O)NC4CC4)c(O)cn3)c(Cl)c2)nc1C(F)F', '< 2 nM'),
  ('CS(=O)(=O)NC1CN(S(=O)(=O)c2cc(Oc3c(Cl)cc(-n4nc(C(F)F)c(=O)[nH]c4=O)cc3Cl)ccc2O)C1', '2 to 20 nM');

Please go through the list and note EC50 for each molecule.
1. O=c1[nH]c(=O)n(-c2cc(Cl)c(Oc3ccc(O)c(S(=O)(=O)N4CCC4)c3)c(Cl)c2)nc1C(F)F
2. O=C(N[C@H]1CCOC1)c1cc(Oc2c(Cl)cc(-n3nc(C(F)F)c(=O)[nH]c3=O)cc2Cl)ccc1O

1: < 2 nM; 2: 2 to 20 nM

Can you look up the measured EC50 of `O=c1[nH]c(=O)n(-c2cc(Cl)c(Oc3cc(S(=O)(=O)NC45CCC(O)(CC4)C5)c(O)cn3)c(Cl)c2)nc1C(F)F` for me?
20 to 100 nM
